# experiment: qHTS Assay for Lipid Storage Modulators (AID 1519); note: % is set by controls: 0 for no effect and ±100 for the full control effect
# measurement parameters: Drosophila S3 cells, BODIPY lipid droplet/cell ratio, laser cytometry; at 25.7 µM (top of the series); cells loaded with oleic acid
Results filed as inconclusive are left out.
quantity measured: activity change, negative = inhibition (%)
Report as a plain number; the unit % is understood.

Some compounds with known activity change, negative = inhibition results, for comparison:
CCOC(=O)c1ccc(OC(=O)CCCCCN=C(N)N)cc1 :: 1.48
Cc1cc(NS(=O)(=O)c2ccc(N)cc2)no1 :: 0.06
Nc1[nH]c(=O)ncc1F :: 0.855

Entry Cc1cccc(N(C)C(=S)Oc2ccc3ccccc3c2)c1 : reported activity change, negative = inhibition = ?
1.79

Entry Clc1ccccc1CN1CCc2sccc2C1 : reported activity change, negative = inhibition = ?
-0.65

Entry O=C(O)c1cccnc1 : reported activity change, negative = inhibition = ?
-4.1

Entry COC(=O)Nc1nc2ccc(C(=O)c3ccccc3)cc2[nH]1 : reported activity change, negative = inhibition = ?
-15.3

Entry NC(N)=NC(N)=NCCc1ccccc1 : reported activity change, negative = inhibition = ?
-0.801

Entry CCCOc1ccc(C(=O)OCCN(CC)CC)cc1N : reported activity change, negative = inhibition = ?
-0.0947

Entry COc1cnc(NS(=O)(=O)c2ccc(N)cc2)nc1 : reported activity change, negative = inhibition = ?
-0.0044

Entry CCn1cc(C(=O)O)c(=O)c2cc(F)c(N3CCNCC3)nc21 : reported activity change, negative = inhibition = ?
0.491

Entry CCn1cc(C(=O)O)c(=O)c2cc(F)c(N3CCNCC3)cc21 : reported activity change, negative = inhibition = ?
0.231

Entry Nc1ccc(S(=O)(=O)Nc2ccccn2)cc1 : reported activity change, negative = inhibition = ?
-0.611

Entry Cc1nnc(NS(=O)(=O)c2ccc(N)cc2)s1 : reported activity change, negative = inhibition = ?
0.279

---

# experiment: Quantitative High-Throughput drug screen in 47 multiple myeloma cell lines against the NCATS MIPE library collection: OCIMY7_PLB cell viability assay (AID 1918987); note: nearly all actives have a fitted effect of over 65% in size
# measurement parameters: OCI-MY7 myeloma viability, CellTiter-Glo ATP, 48 h; series mostly up to 45.8 µM
Inconclusive results are not listed. The source made the active and inactive calls. Calls follow the shape of the dose curve; as a rule, active = well fitted cell-killing curve with a large enough effect; inconclusive = small, poorly fitted or top-dose-only effect, or effect the other way; inactive = no such curve, though single readings can be large or run the other way.
Reply using exactly one outcome from active, inactive

Solved cases (5 shown):
CCc1c2c(nc3ccc(OC(=O)N4CCC(N5CCCCC5)CC4)cc13)-c1cc3c(c(=O)n1C2)COC(=O)[C@]3(O)CC :: active
CNS(=O)(=O)Cc1ccc2[nH]cc(CCN(C)C)c2c1 :: inactive
C[C@@H](CN1CC(=O)NC(=O)C1)N1CC(=O)NC(=O)C1 :: active
CCC(=O)O[C@]1(C(=O)SCF)[C@H](C)C[C@H]2[C@@H]3C[C@H](F)C4=CC(=O)C=C[C@]4(C)[C@@]3(F)[C@@H](O)C[C@@]21C :: active
CC(=O)Oc1ccccc1C(=O)Nc1ncc([N+](=O)[O-])s1 :: active

Outcome? COC(=O)Nc1nc2ccc(C(=O)c3ccccc3)cc2[nH]1
active

Outcome? NC(=O)c1cccc(N)c1
active

---

# experiment: Quantitative High-Throughput drug screen in 47 multiple myeloma cell lines against the NCATS MIPE library collection: ARD_JJKsccE7 cell viability assay (AID 1918929;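 for viability: 100% = DMSO-only wells and 0% = media-only wells without cells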)
# measurement parameters: ARD myeloma cell line viability, CellTiter-Glo, 48 h; series mostly up to 45.8 µM
Results filed as inconclusive are left out. Calls of active or inactive are those of the source. Calls come from the whole dose curve; as a rule, active = well fitted cell-killing curve with a large enough effect; inconclusive = small, poorly fitted or top-dose-only effect, or effect the other way; inactive = no such curve, though single readings can be large or run the other way.
Reply using exactly one outcome from active, inactive

CC(=O)Oc1ccccc1C(=O)Nc1ncc([N+](=O)[O-])s1 :: active
CC1=C(C(=O)O)N2C(=O)[C@@H](NC(=O)C(N)c3ccccc3)[C@H]2SC1 (stereo not given in full) :: inactive
CCN1CCCC1CNC(=O)c1cc(S(N)(=O)=O)ccc1OC (stereo not given) :: inactive
CCOCC(O)COc1ccc(NC(=O)CC[S+](C)C)cc1 (stereo not given) :: inactive

Outcome? CCc1c2c(nc3ccc(OC(=O)N4CCC(N5CCCCC5)CC4)cc13)-c1cc3c(c(=O)n1C2)COC(=O)[C@]3(O)CC
active

Outcome? CC(C)(C#N)c1cc(Cn2cncn2)cc(C(C)(C)C#N)c1
inactive

Outcome? CC(C)(C)C(=O)OCOP(=O)(COCCn1cnc2c(N)ncnc21)OCOC(=O)C(C)(C)C
active

Outcome? COc1ccc(-c2ccc3cc(C(=O)O)ccc3c2)cc1C12CC3CC(CC(C3)C1)C2
inactive

Outcome? CC(N)C12CC3CC(CC(C3)C1)C2 (stereo not given)
inactive

Outcome? COc1cc2ncnc(Nc3cccc(Cl)c3)c2cc1OC
active
